- target-or-test-system: BLVRB (biliverdin reductase B) (Homo sapiens)
- Sequence (P30043 whole entry): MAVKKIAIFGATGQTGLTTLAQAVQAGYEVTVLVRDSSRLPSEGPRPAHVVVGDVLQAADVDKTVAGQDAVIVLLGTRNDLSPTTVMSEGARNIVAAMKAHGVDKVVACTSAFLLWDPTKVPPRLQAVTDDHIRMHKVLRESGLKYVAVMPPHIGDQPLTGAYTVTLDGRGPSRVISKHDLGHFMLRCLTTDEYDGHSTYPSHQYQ
- test-name: isothermal titration calorimetry
- Assay type: binding
The reader will find reported pKd values listed item by item below.
Reminder that pKd means the negative base-10 logarithm of the concentration expressed in mol/L.

>  <molecule>
NC(=O)C1=CN([C@@H]2O[C@H](COP(=O)(O)OP(=O)(O)OC[C@H]3O[C@@H](n4cnc5c(N)ncnc54)[C@H](OP(=O)(O)O)[C@@H]3O)[C@@H](O)[C@H]2O)C=CC1 [NADPH]

>  <pKd>
6.52

$$$$

Now let's try a different one.
Using the record for NC(=O)c1ccc[n+]([C@@H]2O[C@H](COP(=O)(O)OP(=O)(O)OC[C@H]3O[C@@H](n4cnc5c(N)ncnc54)[C@H](OP(=O)(O)O)[C@@H]3O)[C@@H](O)[C@H]2O)c1 [NADP^+] , report its pKd.
6.40
